test: yeast display, Sf9 membrane polyspecificity reagent, FACS + sequencing; frameworks hold sequencing errors
measured_quantity: polyreactivity (PSR sort gate)

Solved cases (6 shown):
{"columns": ["sequence_string", "polyreactivity (PSR sort gate)"],
 "data": [
  ["QVQLVESGGGLVQAGGSLRLSCAASGSIFKAYDMGWYRPAPGKERELVAGISSSDSTYYADSVKGRFSISRDNAKNTVYLQLNSLKPEDTAVYYCAADPVFAAAYIHLYEYWGQGTQVTVSS", "low polyreactivity"],
  ["QVQLVESGGGLVQAGGSLRLSCAASGRSFYTNVMGWYRQAPGKERELVAAISSAGTTYYADSVKGRFTISRDNAKNTVYLQMNSLKPVDSEVYYCAADQVAYYGFDYWGQGTQVTVST", "low polyreactivity"],
  ["QVQLEESGGGLVQAGGSLRLSCAASGCTLTDYAMGWYIQAPGKERELVAAISSVGSTNYADSVKGRFTISRDNAKNTVYLQMNSLKPEDTAVYYCAVDYGRAVQGDSITYDFNYWGQGTQVNVSS", "low polyreactivity"],
  ["QVQLVESGGGLVQAGGSLRLSCAASGRTFRLYAMGWYRQAPGKERELVASISRSVGSTYYADSVKGRFTISRDNAKNTVYLQMNSLKPVDTAVYYCAARSYIPGGWYGAYYYWGQGTQVTVSS", "high polyreactivity"],
  ["QVQLVESGGGLVQAGGSLRLSCAASGSTFGWYAMGWYRQAPGKERELVATISSGGSTYYADSVKGRFTISRDNAKNTVYLQMNCLKPEDTAVYYCAADYLTPWVYWFSYGLDYWGQGTQVTVSS", "low polyreactivity"],
  ["QVQLVESGGGLVQAGGSLRLSCAASGSTFAYYAMGWYRQAPGKERELVAVISVRGGSTYYADSVKGRFTISRDYAKNTVYLQMNSLKPEDTAVYYCAADTFAGYYYWGQGTQVTVSS", "high polyreactivity"]
]}

Ask: // Input: QVQIVESGGGLVQAGGSLRLSCAASGNTISYYDMGWYRQAPGKERELVADISSGGSTYYADSLKGRFTISRDNAKNTVYLQMNSLKPEDTAVYYCNAVVYIRGTAGTYYYWGQGTQVTVSS . Output its polyreactivity (PSR sort gate) only.
Reply: high polyreactivity

Ask: Please list polyreactivity (PSR sort gate) recorded for the sequence QVQLVESGGGLVQRGCSLRLSCAASGSTFGYYTMGWYRQAPGKERELVSAISYSGGRTFYADSVKGRFTISRDNAKNTVYFQMISLKPEDHAVYYCNTRYIPSYLSHLDYWGQGTQVTVSS
Reply: high polyreactivity

Ask: Report measured polyreactivity (PSR sort gate); entry is QVQLVESGGGLVQAGGSLRLSCAASGFIFGQYAMGWYRQAPGKERELVAAISRSGGSTYYADSVKGRFTISRDNAKNTVYLQMNSLKPEDTAVYYCNRRARGDSYRLDYWGQGTQVTVSS
Reply: high polyreactivity
